- Test system: HSV-1
- Experimental protocol: HSV Antiviral (ELISA) Assay in Vero cells
- Type: cell-based, herpes simplex virus type 1
- Experimental context: Human alphaherpesvirus 1; HSV-1, Vero cells; read-out: IC50 (ug/ml) HSV
I'd be grateful if you could share measured IC50 for these entries.

Problem: For the compound CC(NC(=S)Nc1ccc(NC(=O)c2ccccc2F)cc1)c1ccc(C#N)cc1 (centres unmarked) [Example 792] , what IC50 is on record?
Result: > 10 µg/mL

Problem: For the compound COc1ccccc1C(=O)Nc1ccc(NC(=S)NC(C)c2ccc(Br)cc2)cc1 (centres unmarked) [Example 1019] , what IC50 is on record?
Result: > 10 µg/mL

Problem: For the compound CC(NC(=S)Nc1ccc(NC(=O)c2cc3ccccc3o2)cc1)c1ccc(Br)cc1 (centres unmarked) [Example 982] , what IC50 is on record?
Result: > 10 µg/mL

Problem: For the compound CC(NC(=S)Nc1ccc(NC(=O)c2cc3ccccc3cn2)cc1)c1ccc(C#N)cc1 (centres unmarked) [Example 986] , what IC50 is on record?
Result: > 10 µg/mL

Problem: For the compound O=C(Nc1ccc(NC(=S)Nc2cc(Cl)cc(Cl)c2)cc1)c1ccccc1F [Example 934] , what IC50 is on record?
Result: > 10 µg/mL

Problem: For the compound CC(NC(=S)Nc1ccc(NC(=O)c2cccc(C#N)c2)cc1)c1ccc(F)cc1 (centres unmarked) [Example 1020] , what IC50 is on record?
Result: > 10 µg/mL

Problem: For the compound O=C(Nc1ccc(NC(=S)NCc2ccc(F)c(F)c2)cc1)c1ccccc1F [Example 672] , what IC50 is on record?
Result: > 10 µg/mL

Problem: For the compound CC(NC(=S)Nc1ccc(NC(=O)c2ccc(C(F)(F)F)cc2)cc1)c1ccc(F)cc1 (centres unmarked) [Example 1021] , what IC50 is on record?
Result: > 10 µg/mL

Problem: For the compound Cc1ccc([C@H](C)NC(=S)Nc2ccc(NC(=O)c3ccccc3F)cc2)cc1 [Example 1011] , what IC50 is on record?
Result: > 10 µg/mL

Problem: For the compound COc1ccccc1C(=O)Nc1ccc(NC(=S)NC(C)c2cc3ccccc3o2)cc1 (centres unmarked) [Example 1018] , what IC50 is on record?
Result: > 10 µg/mL

Problem: For the compound O=C(Nc1ccc(NC(=S)Nc2ccc(OCC(F)(F)F)cc2OCC(F)(F)F)cc1)c1ccccc1F [Example 1010] , what IC50 is on record?
Result: > 10 µg/mL

Problem: For the compound O=C(Nc1ccc(NC(=S)NCCOc2ccc(I)cc2)cc1)c1ccccc1F [Example 696] , what IC50 is on record?
Result: 10 µg/mL

Problem: For the compound C[C@H](NC(=S)Nc1ccc(NC(=O)c2ccccc2F)cc1)c1ccc(Cl)cc1 [Example 1015] , what IC50 is on record?
Result: > 10 µg/mL

Problem: For the compound Cc1ccc([C@@H](C)NC(=S)Nc2ccc(NC(=O)c3ccccc3F)cc2)cc1 [Example 1012] , what IC50 is on record?
Result: > 10 µg/mL

Problem: For the compound CC(NC(=S)Nc1ccc(NC(=O)c2cc3ccccc3cn2)cc1)c1ccc(F)cc1 (centres unmarked) [Example 984] , what IC50 is on record?
Result: 7.2 µg/mL

Problem: For the compound CC(NC(=S)Nc1ccc(NC(=O)c2cc3ccccc3cn2)cc1)c1ccc(Br)cc1 (centres unmarked) [Example 987] , what IC50 is on record?
Result: 3 µg/mL

Problem: For the compound CC(NC(=S)Nc1ccc(NC(=O)c2nccc3ccccc23)cc1)c1ccc(F)cc1 (centres unmarked) [Example 976] , what IC50 is on record?
Result: > 10 µg/mL

These measurements were taken from patent US6462055B2.
